experiment: TOR pathway RTG branch CIT2 reporter changes – S. cerevisiae, GFP fusion, multiplex flow cytometry, primary screen (AID 1870);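 further: barcoded CIT2-GFP strain pooled with four other GFP strains with rapamycin as positive control; median GFP fluorescence per well over plate mean of DMSO wells so 100% = DMSO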; conditions: S. cerevisiae CIT2-GFP expression, 3 h, at 10 µM, active compounds read high
# maps each entry to its percent response of DMSO control
Recorded metric: percent response of DMSO control (%)

compound="COc1ccc(CCN2C(=O)CSC2c2ccc(OC)c(OC)c2)cc1OC (stereo unspecified)" recorded_metric="percent response of DMSO control" quantitative_result=87.2
compound=CNCCCC1c2ccccc2C=Cc2ccccc21 recorded_metric="percent response of DMSO control" quantitative_result=108
compound="CC(=O)CC(c1ccc([N+](=O)[O-])cc1)c1c(O)c2ccccc2oc1=O (stereo unspecified)" recorded_metric="percent response of DMSO control" quantitative_result=105
compound=COc1cc(CO)ccc1OCc1nnnn1-c1ccc(C)cc1 recorded_metric="percent response of DMSO control" quantitative_result=102
compound=CC(=O)[C@@H]1[C@@H](C(=O)c2ccc(C)cc2)[C@]2(C(=O)Nc3ccccc32)[C@H]2C=Cc3cc(F)ccc3N12 recorded_metric="percent response of DMSO control" quantitative_result=90.1
compound="CCOC(=O)C1C2C=CC3(CN(c4ccc(Cl)c(F)c4)C(=O)C13)O2 (stereo unspecified)" recorded_metric="percent response of DMSO control" quantitative_result=95.4
compound="COc1ccc2[nH]c3c(=O)n(/N=C/[C@H]4C(C)C=C(C)CC4C)c(=O)[nH]c3c2c1 (stereo partly specified)" recorded_metric="percent response of DMSO control" quantitative_result=92
compound=Cc1ccc2[nH]c3c(c2c1)CCNC3=O recorded_metric="percent response of DMSO control" quantitative_result=104
compound="O=C(OCC(O)C(O)COC(=O)c1ccccc1)c1ccccc1 (stereo unspecified)" recorded_metric="percent response of DMSO control" quantitative_result=105
compound=C=CCOc1ccc(C(=O)CC)cc1OC recorded_metric="percent response of DMSO control" quantitative_result=104
compound="COc1c(O)ccc2c1CN1CCc3cc4c(cc3C1C2)OCO4 (stereo unspecified)" recorded_metric="percent response of DMSO control" quantitative_result=93.9

FYI, the data here is from PubChem BioAssay.
